Target or system C-X-C chemokine receptor type 1 (Homo sapiens, UniProt P25024); recorded quantity IC50. Also: in other assays of this panel Not Active means under 50% inhibition at 10 µM.

The following compounds have reported results that may help.
Compound	IC50
CC(C)[C@@]1(NC(=O)[C@@H]2C[C@@H]3c4cccc5[nH]cc(c45)C[C@H]3N(C)C2)O[C@@]2(O)[C@@H]3CCCN3C(=O)[C@H](Cc3ccccc3)N2C1=O.CS(=O)(=O)O [DIHYDROERGOCRISTINE MESYLATE]	Not Active
CC(=O)[C@@]1(O)CC[C@H]2[C@@H]3C[C@H](C)C4=CC(=O)CC[C@]4(C)[C@H]3CC[C@@]21C	Not Active
C[C@]12CCC(=O)C=C1CC[C@@H]1[C@@H]2CC[C@@]2(C)[C@H]1CC[C@]2(C)O	Not Active
O=c1[nH]c(=O)n([C@H]2C[C@H](O)[C@@H](CO)O2)cc1I	Not Active
CCOc1ccc(NC(C)=O)cc1	Not Active

Give reported IC50 value for `Nc1nc2nc[nH]c2c(=S)[nH]1`
Not Active

Give reported IC50 value for `CCn1cc(C(=O)O)c(=O)c2cc(F)c(N3CCNCC3)cc21`
Not Active

Give reported IC50 value for `CC(C)(C)NC(=O)[C@@H]1C[C@@H]2CCCC[C@@H]2CN1C[C@@H](O)[C@H](Cc1ccccc1)NC(=O)[C@H](CC(N)=O)NC(=O)c1ccc2ccccc2n1`
Not Active

Give reported IC50 value for CC1(C)O[C@@H]2C[C@H]3[C@@H]4CCC5=CC(=O)C=C[C@]5(C)[C@@]4(F)[C@@H](O)C[C@]3(C)[C@]2(C(=O)CO)O1 [TRIAMCINOLONE ACETONIDE]
Not Active

Give reported IC50 value for `CC(=O)O[C@@]12CO[C@@H]1C[C@H](O)[C@@]1(C)C(=O)[C@H](O)C3=C(C)[C@@H](OC(=O)[C@H](O)[C@@H](NC(=O)OC(C)(C)C)c4ccccc4)C[C@@](O)([C@@H](OC(=O)c4ccccc4)[C@H]21)C3(C)C.O.O.O`
Not Active
